Each recorded value in this set is attributed to the nanobody polyreactivity screen of Harvey et al. (2022).

assay: yeast display, Sf9 membrane polyspecificity reagent, FACS + sequencing; frameworks hold sequencing errors
measurement-kind: polyreactivity (PSR sort gate)

- seq-text: "QVQLVESGGGLVQAGGSLRLSCAASGRTFYSYAMGWYRQAPGKERELVAAITWRGVRTYYADSVKGRFTISRDNAKNTVYLQMNSLKPEDTAVYYCAAGGVRTRSWDTSLINRYGYWGQGTQVTVSS"
  measurement-kind: "polyreactivity (PSR sort gate)"
  result: "high polyreactivity"
- seq-text: "QVQLVESGGGLVQAGGSLRLSCAASGFTLFFYAMGWYRQAPGKEREFVASIRTSGGSTYYADSVKGRFTISRDNAKNTVYLQMNSLKPEDTAVYYCAARPLYGYGYWGQGTQVTVSS"
  measurement-kind: "polyreactivity (PSR sort gate)"
  result: "high polyreactivity"
- seq-text: "QVQLVESGGGLLQAGGRLRLSCAASGGIFQGYAMGWYRQAPGKERELVAAISRSGGRTYYADSVKGRFTISRDNAKNTVYLQMNSLKPEDTAVYYCAKSQSAKGGYDYWGQATQVTVSS"
  measurement-kind: "polyreactivity (PSR sort gate)"
  result: "high polyreactivity"
- seq-text: "QDQLVESGGGLVQAGGSLRLSCAASGSTLAYNAKGWYRPAPGKERELVAGIRGSGGSTYYADSVKGRFTISRDNAKNTVYLLMNSLKPEDTAVYDCAAAGYYYYLYAAYYYWGQGTQVTVSS"
  measurement-kind: "polyreactivity (PSR sort gate)"
  result: "low polyreactivity"
- seq-text: "QVQLVESGGGLVQAGGSLRLSCAASGFIFKYNAMGWYRQAPGKERELVAAITSSGGSTYYADSVKGRFTISRDNAKNTVYLQMNSLKPEDTAVYYCNRVRDPSYDYWGQGTQVTVSS"
  measurement-kind: "polyreactivity (PSR sort gate)"
  result: "high polyreactivity"
- seq-text: "QVQLVESGGGLVQAGGSLRLSCAASGFIFVVYAMGWYRQAPGTERELVATISSGGGTYYADSVKGRFTISRDNAKITVYLQMNSLKPEDTAVYYCAARRRRLYHFGGNNYWGQGTLVTVSS"
  measurement-kind: "polyreactivity (PSR sort gate)"
  result: "high polyreactivity"
- seq-text: "QVQLVESGGGLVQAGGSLRLSCAASGSIFRGYAMGWYRPAPGKERELVAAISWSAGSTYYADSVKGRFTISRDNAKNTVYLQMNSLKPEDTAVYYCAARSPRRKGMDYWGQGTQVTVSS"
  measurement-kind: "polyreactivity (PSR sort gate)"
  result: "high polyreactivity"
- seq-text: "QVQLVESGGGIVQAGGSLRLSCAASGIIIAVYAMGWYRQAPGKERELVAAISWSSGNTYYADSVKGRFTISRENAKNTVYLQMNSLNPEDTAVYYCAAVSRYKYDYWGQGTQVTVSS"
  measurement-kind: "polyreactivity (PSR sort gate)"
  result: "high polyreactivity"
- seq-text: "QVQLVESGGRLLQAGGSLRLSCAASGSIFVGYAMGWYRQAPGKEWELVAAISASGGRTYYADSVKGRFTISRDNAKTTVYLQMNSLKPEDTAVYYCATDDYWGRGTQVTVSS"
  measurement-kind: "polyreactivity (PSR sort gate)"
  result: "high polyreactivity"
- seq-text: "QVQLVESGGGIVQAGGSLRLSCAASGFTFSSYAMGWYRQAPGKERELVAAISSGGGSTYYADSVKGRFTISRDNAKNTVYLQMNSLKPEDTAVYYCAASHYYSNGYWGQGTQVTVSS"
  measurement-kind: "polyreactivity (PSR sort gate)"
  result: "high polyreactivity"
- seq-text: "QVQLVESGGGLVQAGGSLRLSCAASGRTFDYYAMGWYRQAPGKERELVAAITLSAGRTYYADSVKGRFTISRDNAKNTVYLQMNSLKPEDTAVYYCAARFRRLQRFYYWGQGTQVTVSS"
  measurement-kind: "polyreactivity (PSR sort gate)"
  result: "high polyreactivity"
- seq-text: "QVQLVESGGGLVQAGGSLRLSCAASGITFVAYAMGWYRQAPGKERELVAAISYNGGSTNYADSVKGRFTISRDNAKNTVYLQMNSLKPEDTAVYYCAADLAEFYPRFNYWGQGTQVTVSS"
  measurement-kind: "polyreactivity (PSR sort gate)"
  result: "low polyreactivity"
- seq-text: "QVQLVESGGGLVQAGGSLRLSCAASGFTFVGNAMGWYRQAPGKERELVAAITSGGSTYYADSVKGRFTISRDNAKNTVYLQMNSLKPEDTAVYYCATGGRGGRRYEYWGQGTQVTVSS"
  measurement-kind: "polyreactivity (PSR sort gate)"
  result: "low polyreactivity"
- seq-text: "QVQLVESGGGLVEAGGSLRLSCAASGRIFLSYAMGWYRQAPGKERELVATITDRGGRTYYADSVKGRFTISRDNAKNTVYLQMNSLKAEDTAVDYCAAGLVYRGYRRDYWGQGTQVTVTS"
  measurement-kind: "polyreactivity (PSR sort gate)"
  result: "low polyreactivity"
- seq-text: "QVQLVESGGGLVQAGGSLRLSCAASGRIFPGNTMGWYRQAPGKERELVAAISSSTGNTYYADSVKGRFTISRDNAKNTVYLQMNSLKPEDTAVYYCAARTRQISIVGYNYWGQGTQVTVSS"
  measurement-kind: "polyreactivity (PSR sort gate)"
  result: "high polyreactivity"
- seq-text: "QVQSEESGGGLVQAGGSLRLSCAASGLIFDGYSMGWNRQAPGKERELVAAITRSGASTSYADSVKGRFTISRDNAKNTVYLQMNSLKPDDTAVYYCAAKVHTFYYHYYSWGQGTQVTVSS"
  measurement-kind: "polyreactivity (PSR sort gate)"
  result: "high polyreactivity"
- seq-text: "QVQLVESGGGLVQAGGSLSLSCAASGLTFPKYAMGWYRQAPGKERELVDRISYSGASTYYADSVKGRFTISRDNAKNTVYLQMNSLKPEDTAVYYCAARIYRVYYVDFAPYYYWGQGTQVTVSS"
  measurement-kind: "polyreactivity (PSR sort gate)"
  result: "high polyreactivity"
- seq-text: "QVQLVESGGGLVQAGGSLRLSCAASGLIFVRYAMGWYRQAPGKERELVATITWSGGTTYADSVKGRFTISRDNAKNTVYLQMNSLKPEDTAVYYCAVEWPAWTDSDYPVGGHAFGYWGQGTQVTVSS"
  measurement-kind: "polyreactivity (PSR sort gate)"
  result: "low polyreactivity"
- seq-text: "QVQLVESGGGLVQAGGSLRLSCAASGRIFLSNAMGWYRQAPGKERELVAAISWTGGSTYYADSVKGRFTISRDNAKNTVYLQMNSLKPEDTAVYYCAASTVGQTYSDYVDTYDYWGQGTQVTVSS"
  measurement-kind: "polyreactivity (PSR sort gate)"
  result: "low polyreactivity"
- seq-text: "QVQLVESGGGLVQAGGSLRLSCAASGLSFSVYAMGWYRQAPGKERELVAAITRNGGSTYYADSVKGRFTISRDTAKNTVYLQMNSLKPEDSAVYYCAAVASSKLYDYWGQGTQVTVSS"
  measurement-kind: "polyreactivity (PSR sort gate)"
  result: "low polyreactivity"
- seq-text: "QVQLVESGGGLVQAGGSLRLSCAASARIFSQNAMGWYRQAPGKERELVAVISWSGVSTSYSDSVKGRFTISRDNAKNTVYLQMNSLKPEDTAVYYCAARRFYYYSRYPGYNSWGQGTLVTVSS"
  measurement-kind: "polyreactivity (PSR sort gate)"
  result: "high polyreactivity"
